Test system: metabolism of retinoic acid in human breast cancer cells
ASSAY_EXPLANATION: Inhibition of retinoic acid (RA) metabolism (Example C.1)
Type: cell-based
SETTINGS: MCF-7 human breast cancer cells, 3H-RA as substrate; concentration needed to reduce the amount of metabolites to 50% of the control
Assign log10(IC50) to each entry below.
Kindly note that the scale is log10 and the underlying IC50 is in nM.

Sample CCC(C(c1ccc(NC(=O)Cc2ccc(OC)c(OC)c2)cc1)n1ccnc1)N(C)C (single isomer, unassigned) [Compound 393] ; log10(IC50) observed: -0.02

CCC(CC)C(c1ccc(NC(=O)Cc2ccc(C)c(OC)c2)cc1)n1ccnc1 (racemic) yielded log10(IC50) of -0.02

Noted for CCC(CC)C(c1ccc(NC(=O)Cc2ccc(OC)c(C)c2)cc1)n1cncn1 (single isomer, unassigned) [Compound 85] : its log10(IC50) reads 0.59

// log10(IC50) lookup, compound = CCC(C)C(c1ccc(NC(=O)C(C)=Cc2ccccc2)cc1)n1ccnc1 (mixture of isomers) , result: 0.63

# log10(IC50) of CCC(CC)C(c1ccc(NC(=O)Cc2ccc(OC)c(C)c2)cc1)n1cncn1 (racemic) [Compound 78] = -0.64

The measured log10(IC50) associated with CCC(CC)C(c1ccc(NC(=O)C2Oc3ccccc3O2)cc1)n1cncn1 (racemic) reads 0.10

For this compound ( O=C(C=C(c1ccccc1)c1ccccc1)Nc1ccc(C(c2ccc(Cl)cc2)c2ccccn2)cc1 (stereo not drawn) ), measured log10(IC50) is 1.08

For this compound ( C/C(=C\c1cccc(Cl)c1)C(=O)Nc1ccc(C(C(C)C)n2ccnc2)cc1 (racemic) ), measured log10(IC50) is 1.63

Quick note, log10(IC50) for CCC(CC)C(c1ccc(NC(=O)COc2ccccc2OC)cc1)n1ccnc1 (racemic) landed at 0.00

Recorded log10(IC50) (compound C/C(=C\c1ccsc1)C(=O)Nc1ccc(C(C(C)C)n2ccnc2)cc1 (racemic) ): 0.90

Measured log10(IC50) of COc1ccccc1OCC(=O)Nc1ccc(C(C(C)N(C)C)n2ccnc2)cc1 (single isomer, unassigned) : 0.76

For reference, reported log10(IC50) for C/C(=C\c1cccnc1)C(=O)Nc1ccc(C(C(C)C)n2ccnc2)cc1 (racemic) stands at 1.41

compound CC(C)C(c1ccc(NC(=O)C=C(c2ccccc2)c2ccccc2)cc1)n1ccnc1 (racemic) , log10(IC50) observed: 1.02

###

System: metabolism of retinoic acid in human breast cancer cells
ASSAY_EXPLANATION: Inhibition of retinoic acid (RA) metabolism (Example C.1)
Type: cell-based
SETTINGS: MCF-7 human breast cancer cells, 3H-RA as substrate; concentration needed to reduce the amount of metabolites to 50% of the control
Method: The property to delay the metabolism of retinoic acid can be evidenced in various in vitro and in vivo experiments. […] MCF-7 human breast cancer cells were grown as stock cultures according to art-known protocols. […] The fraction containing the polar ^3H-labelled metabolites was collected and counted in a scintillation counter. […]
Give log10 of IC50 for every item shown.
Plainly stated, the numbers are log10 of IC50 given in nM.

So, CC(C)C(c1ccc(NC(=O)C2CSc3ccccc3O2)cc1)n1ccnc1 (racemic) [Compound 243] ? Its log10 of IC50 was 1.56

For CC(C)C(c1ccc(NC(=O)NCc2ccc(Cl)cc2)cc1)n1ccnc1 (centres unmarked) [Compound 273] the compound record lists log10 of IC50 as 1.72

Please fill in: log10 of IC50 reported for CCC(CC)C(c1ccc(NC(=O)Cc2ccc(O)c(Cl)c2)cc1)n1cncn1 (racemic) [Compound 79] = -1.47

The compound identified as CCC(CC)C(c1ccc(NC(=O)c2nc3ccccc3s2)cc1)n1ccnc1.O=C(O)C(=O)O (centres unmarked) [Compound 778] registered its log10 of IC50 at 1.88

For CC(C)C(c1ccc(NC(=O)Cc2ccc(N=[N+]=[N-])c(I)c2)cc1)n1ccnc1 (centres unmarked) [Compound 259] the compound record lists log10 of IC50 as 0.97

# compound CCOc1ccc(CC(=O)Nc2ccc(C(C(CC)CC)n3cncn3)cc2)cc1Cl (racemic) [Compound 75] ; its log10 of IC50 = -0.38

log10 of IC50 reading for CC(C)C(c1ccc(NC(=O)Nc2cccc(F)c2)cc1)n1cncn1 (racemic) [Compound 725] : 0.52

Measured log10 of IC50, CCOc1ccc(CC(=O)Nc2ccc(C(C(CC)CC)n3cncn3)cc2)cc1 (racemic) [Compound 71] : -0.58

Lookup result for CCC(CC)C(c1ccc(NC(=O)C2CCN(C(=O)OC(C)(C)C)CC2)cc1)n1ccnc1 (racemic) [Compound 53] ; measured log10 of IC50: 0.33

// sample C=C(C)C(=O)Nc1ccc(C(C(C)C)n2ccnc2)cc1 (racemic) [Compound 597] , its log10 of IC50 was 0.70

Reported log10 of IC50 for CC(=Cc1cccn1C)C(=O)Nc1ccc(C(C(C)C)n2ccnc2)cc1 (racemic) [Compound 605] was 1.15

// CC(C)C(c1ccc(NC(=O)Cc2ccc3c(c2)OCCO3)cc1)n1ccnc1 (racemic) [Compound 255] : log10 of IC50 value = 0.80

Sample C/C(=C\c1ccc(C(F)(F)F)cc1)C(=O)Nc1ccc(C(C(C)C)n2ccnc2)cc1 (centres unmarked) [Compound 580] ; log10 of IC50 observed: 1.50

Please fill in: log10 of IC50 reported for CC(C)C(c1ccc(NC(=O)c2cccn2C)cc1)n1ccnc1 (centres unmarked) [Compound 195] = 1.55

Record CCC(CC)C(c1ccc(NC(=O)Nc2ccccc2F)cc1)n1ccnc1 (racemic) [Compound 713] . Reported log10 of IC50: 0.14

According to the records, this compound CC(=Cc1ccccc1)C(=O)Nc1ccc(C(C(C)Sc2ccccc2)n2ccnc2)cc1 (single isomer, unassigned) [Compound 483] displays log10 of IC50 of 1.30

# compound Cc1ccc(CC(=O)Nc2ccc(C(C(C)C)n3cncn3)cc2)cc1 (centres unmarked) [Compound 133] ; its log10 of IC50 = 0.66

# compound CCC(CC)C(c1ccc(NC(=O)Cc2ccc3c(c2)OCO3)cc1)n1ccnc1 (racemic) [Compound 28] ; its log10 of IC50 = 0.44

Field log10 of IC50 (entry CCC(CC)C(c1ccc(NC(=O)C2=Cc3ccccc3OC2)cc1)n1ccnc1 (racemic) [Compound 31] ) reads 0.42

log10 of IC50 reading for C/C(=C\c1ccc2nnn(C)c2c1)C(=O)Nc1ccc(C(C(C)C)n2ccnc2)cc1 (racemic) [Compound 602] : 1.41

Just so you know, measured log10 of IC50 for CCOc1ccc(CCC(=O)Nc2ccc(C(C(CC)CC)n3ccnc3)cc2)cc1 (single isomer, unassigned) [Compound 61] came out at -0.13

The value of log10 of IC50 measured for the compound CC(C)C(c1ccc(NC(=O)c2ccc3ccccc3c2)cc1)n1ccnc1 (racemic) [Compound 179] turned out to be 1.57

# compound COCC(=O)Nc1ccc(C(C(C)C)n2ccnc2)cc1 (centres unmarked) [Compound 212] ; its log10 of IC50 = 0.61

log10 of IC50 recorded for this compound, CC(C)C(c1ccc(NC(=O)c2cccnc2)cc1)n1ccnc1 (racemic) [Compound 196] , is 1.35

Memo: CC(C)C(c1ccc(NC(=O)CSc2ccncc2)cc1)n1ccnc1 (racemic) [Compound 239] , reported log10 of IC50: -0.14

Short answer for CC(C)C(c1ccc(NC(=O)C2(C)CCCCC2)cc1)n1ccnc1 (racemic) [Compound 201] : log10 of IC50 was 0.55

###

Consider the following molecules; for each one, report its IC50.
System: metabolism of retinoic acid in human breast cancer cells
ASSAY_EXPLANATION: Inhibition of retinoic acid (RA) metabolism (Example C.1)
Format: cell-based
SETTINGS: MCF-7 human breast cancer cells, 3H-RA as substrate; concentration needed to reduce the amount of metabolites to 50% of the control

Entry C/C(=C\c1ccccc1)C(=O)Nc1ccc(C(CCC(C)C)n2ccnc2)cc1 (stereo not shown) [Compound 475] , metabolism of retinoic acid in human breast cancer cells data, IC50 value: > 0.1 µM

// returns IC50 for CC(C)C(c1ccc(NC(=O)Cc2ccc(N)cc2)cc1)n1ccnc1 (single isomer, unassigned) [Compound 147] with metabolism of retinoic acid in human breast cancer cells; value = 0.033 µM

Summary line: CC(C)C(c1ccc(NC(=O)Nc2ccc(Cl)c(Cl)c2)cc1)n1ccnc1 (racemic) [Compound 732] , metabolism of retinoic acid in human breast cancer cells, reported IC50 = 0.0193 µM

metabolism of retinoic acid in human breast cancer cells IC50 of O=C(Nc1ccc(C(c2ccccc2)n2ccnc2)cc1)c1cnccn1 (racemic) [Compound 424] is > 0.1 µM

Record for C/C(=C\c1ccccc1F)C(=O)Nc1ccc(C(C(C)C)n2ccnc2)cc1 (racemic) [Compound 585] under target or system metabolism of retinoic acid in human breast cancer cells: IC50 reported as 0.00721 µM

Item CCC(C(c1ccc(NC(C)=O)cc1)n1ccnc1)N(C)C (single isomer, unassigned) [Compound 558] ; assay system metabolism of retinoic acid in human breast cancer cells; IC50 reported as 0.00132 µM

Entry COc1cc(CC(=O)Nc2ccc(C(C(C)N(C)C)n3cncn3)cc2)cc(OC)c1OC (single isomer, unassigned) [Compound 292] , metabolism of retinoic acid in human breast cancer cells data, IC50 value: 0.000137 µM

This collection of values is drawn from patent US7179825B2.
